Attribution: patent US4015974A

Tested on: radish
Assay: Pre-emergence application, herbicidal effect on radish (Table 1)
Assay type: in vivo
Conditions: 20 g./a., 20 days after application, score 0-5
property measured: Herbicidal effect, radish

compound	Herbicidal effect, radish
CCOP(=O)(SCC(=O)N1CCCCC1C)SCc1ccc(C(C)(C)C)cc1 (stereo not shown)	1

Sure, the documented Herbicidal effect, radish for CCCOP(=O)(SCC(=O)N1CCCCC1CC)SCC(C)C (stereo not shown) is 0

Sure, the documented Herbicidal effect, radish for CCCCOP(=O)(SCC)SCC(=O)N1CCCCC1CC (stereo not shown) is 0

Sure, the documented Herbicidal effect, radish for CCOP(=O)(SCCC(C)C)SCC(=O)N1CCCCC1CC (stereo not shown) is 0

Sure, the documented Herbicidal effect, radish for CCCCOP(=O)(SCCC(C)C)SCC(=O)N1CCCCC1CC (stereo not shown) is 0

Sure, the documented Herbicidal effect, radish for CCOP(=O)(SCC)SCC(=O)N1CCCC(C)C1 (stereo not shown) is 1

Sure, the documented Herbicidal effect, radish for C=CCSP(=O)(OCCC)SCC(=O)N1CCCCC1CC (stereo not shown) is 0

---

Below: a set of entries, each annotated with reported LC50.
Test system: carmine mite (Tetranychus telavius)
Assay: Lethal effect on carmine mite, leaf dipping (Table 3)
Format: in vivo
Details: foliar, 48 h
Give the quantity in mg/L, number only.

# count of solved cases: 4
molecule	LC50 (mg/L)
CCCCSP(=O)(OCC)SCC(=O)N1CCCCC1C (centres unmarked) [Compound 4]	11.4
CCOP(=O)(SCC(=O)N1CCCCC1C)SC(C)CC (centres unmarked) [Compound 5]	7.9
CCCSP(=O)(OC)SCC(=O)N1CCCCC1C (centres unmarked) [Compound 30]	22.8
CCOP(=O)(SCC(=O)N1CCCCC1C)SCc1ccccc1 (centres unmarked) [Compound 11]	50

Item: CCOP(=O)(SCCC(C)C)SCC(=O)N1CCCCC1C (centres unmarked) [Compound 7] | System: carmine mite (Tetranychus telavius) | LC50: 18.5

---

System: nematode
Assay: Effect on nematode (Table 7)
Format: in vivo
Design: tested at 500 ppm
Conditions: 500 p.p.m., 24 hours
property measured: Mortality

# count of solved cases: 3
compound	Mortality
CCOP(=O)(SCC(=O)N1CCCCC1CC)SCc1ccc(Br)cc1 (centres unmarked) [Compound 57]	91.0%
CCOP(=O)(SCC(=O)N1CCCC(C)C1)SCC(C)C (centres unmarked) [Compound 28]	100%
CCOP(=O)(SCC(=O)N1CCCCC1C)SCc1ccc(Cl)cc1 (centres unmarked) [Compound 49]	100%

Item: CCOP(=O)(SCC(=O)N1CCCCC1C)SC1CCCCC1 (centres unmarked) [Compound 10] | System: nematode | Mortality: 100%

Item: C=C(Cl)CSP(=O)(OCC)SCC(=O)N1CCCCC1C (centres unmarked) [Compound 9] | System: nematode | Mortality: 100%

---

System: redroot pigweed (Amaranthus retroflexus)
Assay: Pre-emergence application, herbicidal effect on redroot pigweed (Table 1)
Type: in vivo
Parameters: key: 0: not damaged; 5: completely killed
Conditions: 20 g./a., 20 days after application, score 0-5
Experimental: Seeds of barnyard grass (Echinochloa crus-galli) and large crabgrass (Digitaria sanguinalis) as representatives of grassy weeds and those of radish, redroot pigweed (Amaranthus retroflexus), common purslane (Portulaca oleracea) and common lambsquarter (Chenopodium album) as representatives of broad-leaved weeds were individually sowed in flower pots of about 10 cm. in diameter. […] Herbicidal effects were evaluated by the numerals ranging from 0 (not damaged) to 5 (completely killed). […]
Below: a set of entries, each annotated with reported Herbicidal effect, redroot pigweed.
Answer field: number only, no words.

compound	recorded value
CCOP(=O)(SCC(=O)N1CCCCC1C)SCc1ccccc1 (stereo not drawn) [Compound 11]	5
CCOP(=O)(SCC(=O)N1CCCCC1C)SCc1ccc(C(C)(C)C)cc1 (stereo not drawn) [Compound 50]	5
CCOP(=O)(SCC)SCC(=O)N1CCCCC1CC (stereo not drawn) [Compound 75]	5
CCOP(=O)(SCC(=O)N1CCCCC1C)SCc1ccc(C)cc1 (stereo not drawn) [Compound 52]	4
CCCSP(=O)(OCC)SCC(=O)N1CCC(C)CC1 (stereo not drawn) [Compound 12]	5

Sure, the documented Herbicidal effect, redroot pigweed for CCOP(=O)(SCC(=O)N1CCCCC1C)SCC(C)c1ccccc1 (stereo not drawn) [Compound 65] is 4

Sure, the documented Herbicidal effect, redroot pigweed for CCCCOP(=O)(SCC(=O)N1CCCCC1CC)SC(C)C (stereo not drawn) [Compound 94] is 4

---

System: redroot pigweed (Amaranthus retroflexus)
Assay: Pre-emergence application, herbicidal effect on redroot pigweed (Table 1)
Type: in vivo
Parameters: key: 0: not damaged; 5: completely killed
Conditions: 40 g./a., 20 days after application, score 0-5
Below: a set of entries, each annotated with reported Herbicidal effect, redroot pigweed.

# count of solved cases: 4
molecule	Herbicidal effect, redroot pigweed
C=C(Cl)CSP(=O)(OCC)SCC(=O)N1CCCCC1C (stereo not shown)	5
CCCSP(=O)(OCC)SCC(=O)N1CCCCC1CC (stereo not shown)	5
CCOP(=O)(SCCC(C)C)SCC(=O)N1CCCC(C)C1 (stereo not shown)	5
C=CCSP(=O)(OCCC)SCC(=O)N1CCC(C)CC1 (stereo not shown)	5

Sure, the documented Herbicidal effect, redroot pigweed for CCCCCSP(=O)(OCC)SCC(=O)N1CCCC(C)C1 (stereo not shown) is 5

Sure, the documented Herbicidal effect, redroot pigweed for C=C(C)CSP(=O)(OCC)SCC(=O)N1CCCCC1CC (stereo not shown) is 5

Sure, the documented Herbicidal effect, redroot pigweed for CCCOP(=O)(SCCC)SCC(=O)N1CCCCC1C (stereo not shown) is 4

---

Test system: redroot pigweed (Amaranthus retroflexus)
Assay: Pre-emergence application, herbicidal effect on redroot pigweed (Table 1)
Assay type: in vivo
Set-up: key: 0: not damaged; 5: completely killed
Details: 10 g./a., 20 days after application, score 0-5
Below: a set of entries, each annotated with reported Herbicidal effect, redroot pigweed.
Answer field: number only, no words.

Sure, the documented Herbicidal effect, redroot pigweed for CCOP(=O)(SCC(=O)N1CCCCC1CC)SC(C)C (centres unmarked) is 5

Sure, the documented Herbicidal effect, redroot pigweed for CCOP(=O)(SC)SCC(=O)N1CCCCC1CC (centres unmarked) is 5

Sure, the documented Herbicidal effect, redroot pigweed for CCCOP(=O)(SCCC)SCC(=O)N1CCCCC1C (centres unmarked) is 4

---

System: barnyard grass (Echinochloa crus-galli)
Assay: Water application, herbicidal effect on barnyard grass (Table 2)
Format: in vivo
Set-up: key: 0: not damaged; 5: completely killed
Details: 20 g/a, 25 days, score 0-5
property measured: Herbicidal effects, barnyard grass

molecule	Herbicidal effects, barnyard grass
CCOP(=O)(SC)SCC(=O)N1CCCCC1CC (stereo not drawn)	5
C=C(Cl)CSP(=O)(OCC)SCC(=O)N1CCCCC1CC (stereo not drawn)	5
CCOP(=O)(SCC(=O)N1CCCCC1CC)SC(C)C (stereo not drawn)	5

Sure, the documented Herbicidal effects, barnyard grass for CCCSP(=O)(OCC)SCC(=O)N1CCCCC1CC (stereo not drawn) is 5

Sure, the documented Herbicidal effects, barnyard grass for CCCCSP(=O)(OCC)SCC(=O)N1CCCCC1C (stereo not drawn) is 5

Sure, the documented Herbicidal effects, barnyard grass for CCOP(=O)(SCC)SCC(=O)N1CCCCC1C (stereo not drawn) is 5

Sure, the documented Herbicidal effects, barnyard grass for CCOP(=O)(SCC(=O)N1CCCCC1C)SCc1ccc(Cl)cc1 (stereo not drawn) is 5

---

Tested on: redroot pigweed (Amaranthus retroflexus)
Test: Pre-emergence application, herbicidal effect on redroot pigweed (Table 1)
Assay type: in vivo
Parameters: key: 0: not damaged; 5: completely killed
Conditions: 20 g./a., 20 days after application, score 0-5
Below: a set of entries, each annotated with reported Herbicidal effect, redroot pigweed.

Sure, the documented Herbicidal effect, redroot pigweed for CCCOP(=O)(SCC)SCC(=O)N1CCCCC1CC (stereo not shown) [Compound 84] is 5

Sure, the documented Herbicidal effect, redroot pigweed for CCOP(=O)(SCCc1ccccc1)SCC(=O)N1CCCCC1C (stereo not shown) [Compound 63] is 5

Sure, the documented Herbicidal effect, redroot pigweed for CCOP(=O)(SCCCC(C)C)SCC(=O)N1CCCCC1CC (stereo not shown) [Compound 80] is 4

Sure, the documented Herbicidal effect, redroot pigweed for CCOP(=O)(SCCC(C)C)SCC(=O)N1CCCCC1C (stereo not shown) [Compound 7] is 5

---

System: common purslane (Portulaca oleracea)
Assay: Pre-emergence application, herbicidal effect on common purslane (Table 1)
Format: in vivo
Parameters: key: 0: not damaged; 5: completely killed
Conditions: 40 g./a., 20 days after application, score 0-5
property measured: Herbicidal effect, common purslane

# count of solved cases: 3
compound	recorded value
CCCOP(=O)(SCC(=O)N1CCCCC1C)SCC(C)C (stereo not shown)	5
COP(=S)(NC(C)C)Oc1ccc(Cl)cc1Cl (stereo not shown) [Zytron, reference compound]	2
CCCOP(=O)(SCCC(C)C)SCC(=O)N1CCCCC1CC (stereo not shown)	5

Attention now turns to another entry.
Sure, the documented Herbicidal effect, common purslane for CCCCSP(=O)(OCCC)SCC(=O)N1CCCCC1C (stereo not shown) is 4
